Target: T1, SARS-CoV-2 Delta Variant RBD (SARS-CoV-2 Delta variant)
T1 construct: domain: RBD; coated on ELISA plates
Assay: ELISA, RBD coated
Overview of reported EC50 across a group of binders:

| binder | EC50, nM |
| --- | --- |
| PP903 MBP-5HVZ-R1i-A11-H6 (VHH, Form: Dimer) VHH: QVQLVESGGGLVQPGGSLRLSCAASGSILQINAIHWFRQAPGKQREEVAAITSGGSTGYADSVKGRFTISRDNAKNTVYLQMNSLKPEDTAVYYCAATSTRGGLDSDYWGQGTQVTVSS | 0.26 |
| PP930 MBP-5HVZ-R2b-D4-H6 (VHH, Form: Dimer) VHH: QVQLVESGGGLVQPGGSLRLSCAASGSYASIASMHWFRQAPGKQREFVAGLTSGGSRIYGDSVKGRFTISRDNAKNTVYLQMNSLKPEDTAVYYCTALILHYAGMYDYWGQGTQVTVSS | 21.1 |
| PP1100 MBP-5HVZ-PAPA-RN-14-H6 (VHH, Form: Dimer) VHH: QVQLVESGGGLVQPGGSLRLSCAASGENFSGNLVHWFRQAPGKAREGVATVTSTGSGYYADSVKGRFTISRDNAKNTVYLQMNSLKPEDTAVYYCAAKHQKGEIPYYDWGQGTQVTVSS | 46.5 |
| PP1112 MBP-5HVZ-PAPA-RN-28-H6 (VHH, Form: Dimer) VHH: QVQLVESGGGLVQPGGSLRLSCAASGSQFSHNLMSWFRQAPGKQREFVAAITSFGSTGYADSVKGRFTISRDNAKNTVYLQMNSLKPEDTAVYYCAALSSEDTSHYPRNYWGQGTQVTVSS | 15.1 |
